The measurements presented in this section are drawn from patent US9938262B2.

Target: FSHR (Homo sapiens, UniProt P23945)
Construct: expressed in transfected cells; host or cells: CHO (Cho-FSHR-LUC-1-1-43)
Sequence (P23945 18-695): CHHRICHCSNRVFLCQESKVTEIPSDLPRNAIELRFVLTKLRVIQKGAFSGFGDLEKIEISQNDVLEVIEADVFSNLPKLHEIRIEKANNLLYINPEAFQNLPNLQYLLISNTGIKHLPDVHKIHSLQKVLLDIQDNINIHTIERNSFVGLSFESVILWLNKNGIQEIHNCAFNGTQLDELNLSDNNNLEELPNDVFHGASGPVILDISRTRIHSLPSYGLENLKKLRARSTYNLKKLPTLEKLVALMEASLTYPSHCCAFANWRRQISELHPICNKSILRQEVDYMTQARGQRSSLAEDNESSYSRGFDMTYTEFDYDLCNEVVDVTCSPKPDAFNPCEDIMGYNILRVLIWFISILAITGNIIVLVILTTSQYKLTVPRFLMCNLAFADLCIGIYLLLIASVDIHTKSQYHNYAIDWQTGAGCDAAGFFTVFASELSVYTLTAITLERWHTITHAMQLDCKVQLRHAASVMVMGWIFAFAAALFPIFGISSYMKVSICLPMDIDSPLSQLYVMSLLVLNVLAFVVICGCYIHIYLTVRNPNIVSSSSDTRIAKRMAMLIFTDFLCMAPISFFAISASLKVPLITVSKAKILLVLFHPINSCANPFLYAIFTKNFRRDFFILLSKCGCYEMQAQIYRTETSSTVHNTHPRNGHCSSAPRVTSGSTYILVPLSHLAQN
Sequence (P01215 25-116 partner): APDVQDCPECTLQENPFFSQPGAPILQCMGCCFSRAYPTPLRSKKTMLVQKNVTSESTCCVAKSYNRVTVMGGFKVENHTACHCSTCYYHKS
Sequence (P01225 19-129 partner): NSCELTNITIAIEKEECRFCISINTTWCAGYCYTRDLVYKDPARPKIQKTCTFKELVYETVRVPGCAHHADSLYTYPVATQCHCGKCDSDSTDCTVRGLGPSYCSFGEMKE
Test: EC50 of cyclic AMP production in CHO FSHR cells + EC20 FSH (Assay A)
Type: cell-based
Details: CHO FSHR cells + EC20 FSH; Table 2; read-out: Assay A EC50 of cyclic AMP production
pEC50: −log10 of the molar value.
Readout Name: pEC50

compound="Cc1ccccc1N1CCN(c2ccc(C(=O)NCCCCN3CCOCC3)cc2NC(=O)c2coc(C3CC3)n2)CC1 [Compound 472]" reported_measurement="6.00 to 7.00"
compound="COc1cc(CNC(=O)c2ccc(N3CCN(c4ccccc4C)CC3)c(NC(=O)c3coc(C4CC4)n3)c2)cc(OC)c1 [Compound 295]" reported_measurement="6.00 to 7.00"
compound="CCC(CCNC(=O)c1ccc(N2CCN(c3ccccc3C)CC2)c(NC(=O)c2ccco2)c1)N1CCCC1=O (stereo not shown) [Compound 281]" reported_measurement="6.00 to 7.00"
compound="Cc1ccccc1N1CCN(c2ccc(C(=O)NCCc3ccc(CNC(=O)OC(C)(C)C)cc3)cc2NC(=O)c2coc(C3CC3)n2)CC1 [Compound 489]" reported_measurement="5.00 to 6.00"

---

Molecular target: FSHR (Homo sapiens, UniProt P23945)
Construct: expressed in transfected cells; host or cells: CHO (Cho-FSHR-LUC-1-1-43)
Test: EC50 of cyclic AMP production in CHO FSHR cells + EC20 FSH (Assay A)
Assay type: cell-based
Conditions: CHO FSHR cells + EC20 FSH; Table 1; read-out: Assay A EC50 of cyclic AMP production
// reported EC50 per item
Readout Name: EC50

compound="Cc1ccccc1N1CCN(c2ccc(C(=O)N[C@H]3O[C@@H](CO)[C@@H]4OC(C)(C)O[C@@H]43)cc2NC(=O)c2ccco2)CC1 [Compound 191]" readout_name=EC50 reported_measurement="0.1 to 1 µM"
compound="Cc1cccc(C(=O)Nc2cc(C(=O)NCCCN3CCCC3=O)ccc2N2CCN(c3ccccc3C)CC2)n1 [Compound 186]" readout_name=EC50 reported_measurement="1 to 10 µM"
compound="Cc1ccccc1N1CCN(c2ccc(C(=O)NCc3cccc(-c4ccnn4C)c3)cc2NC(=O)c2ccco2)CC1 [Compound 237]" readout_name=EC50 reported_measurement="0.1 to 1 µM"
compound="Cc1ccccc1N1CCN(c2ccc(C(=O)NCC3(CN4CCCC4)CC3)cc2NC(=O)c2ccco2)CC1 [Compound 154]" readout_name=EC50 reported_measurement="1 to 10 µM"
compound="Cc1ccccc1N1CCN(c2ccc(C(=O)NCCCN3CCCC3=O)cc2NC(=O)C(C)(C)C)CC1 [Compound 177]" readout_name=EC50 reported_measurement="1 to 10 µM"
compound="Cc1ccccc1N1CCN(c2ccc(C(=O)NCCCN3CCCC3=O)cc2NC(=O)c2sccc2Br)CC1 [Compound 4]" readout_name=EC50 reported_measurement="1 to 10 µM"
compound="Cc1ccccc1N1CCN(c2ccc(C(=O)NCc3cccc(-c4ccn(C)n4)c3)cc2NC(=O)c2ccco2)CC1 [Compound 240]" readout_name=EC50 reported_measurement="0.1 to 1 µM"
compound="CC(=O)Nc1ccc(C(=O)Nc2cc(C(=O)NCCCN3CCCC3=O)ccc2N2CCN(c3ccccc3C)CC2)o1 [Compound 164]" readout_name=EC50 reported_measurement="1 to 10 µM"
compound="Cc1ccccc1N1CCN(c2ccc(C(=O)NCCc3c[nH]cn3)cc2NC(=O)c2ccco2)CC1 [Compound 15]" readout_name=EC50 reported_measurement="0.1 to 1 µM"
compound="CCOc1cc(CCNC(=O)c2ccc(N3CCN(c4ccccc4C)CC3)c(NC(=O)c3ccco3)c2)ccc1OC [Compound 65]" readout_name=EC50 reported_measurement="1 to 10 µM"
compound="Cc1ccccc1N1CCN(c2ccc(C(=O)NCCCN3CCCC3=O)cc2NC(=O)c2ccco2)CC1 [Compound 2]" readout_name=EC50 reported_measurement="< 0.1 µM"
compound="Cc1ccccc1N1CCN(c2ccc(C(=O)NCC(=O)NC3CCCC3)cc2NC(=O)c2ccco2)CC1 [Compound 151]" readout_name=EC50 reported_measurement="0.1 to 1 µM"
compound="Cc1ccccc1N1CCN(c2ccc(C(=O)NCc3cccc(-c4c[nH]cn4)c3)cc2NC(=O)c2ccco2)CC1 [Compound 236]" readout_name=EC50 reported_measurement="0.1 to 1 µM"
compound="CCc1nc(C(=O)Nc2cc(C(=O)NCCCN3CCCC3=O)ccc2N2CCN(c3ccccc3C)CC2)co1 [Compound 79]" readout_name=EC50 reported_measurement="0.1 to 1 µM"
compound="Cc1ccccc1N1CCN(c2ccc(C(=O)NCCCN3CCCC3=O)cc2NC(=O)c2cnc(Br)s2)CC1 [Compound 25]" readout_name=EC50 reported_measurement="1 to 10 µM"
compound="Cc1ccccc1N1CCN(c2ccc(C(=O)NCCC(C)N3CCCC3)cc2NC(=O)c2ccco2)CC1 (centres unmarked) [Compound 181]" readout_name=EC50 reported_measurement="1 to 10 µM"
compound="Cc1ccccc1N1CCN(c2ccc(C(=O)NCCCN3CCCC3=O)cc2NC(=O)c2ncccc2F)CC1 [Compound 160]" readout_name=EC50 reported_measurement="1 to 10 µM"
compound="Cc1ccccc1N1CCN(c2ccc(C(=O)NCc3ccc(C(N)=O)cc3)cc2NC(=O)c2ccco2)CC1 [Compound 247]" readout_name=EC50 reported_measurement="< 0.1 µM"
compound="CNC[C@@H](NC(=O)c1ccc(N2CCN(c3ccccc3C)CC2)c(NC(=O)c2ccco2)c1)c1ccc(Cl)cc1 [Compound 55]" readout_name=EC50 reported_measurement="1 to 10 µM"
compound="CNCCNC(=O)c1ccc(N2CCN(c3ccccc3C)CC2)c(NC(=O)c2ccco2)c1 [Compound 132]" readout_name=EC50 reported_measurement="1 to 10 µM"
compound="Cc1cnc(C(=O)Nc2cc(C(=O)NCCCN3CCCC3=O)ccc2N2CCN(c3ccccc3C)CC2)s1 [Compound 205]" readout_name=EC50 reported_measurement="0.1 to 1 µM"
compound="Cc1ccccc1N1CCN(c2ccc(C(=O)NCCc3cccc(C(N)=O)c3)cc2NC(=O)c2ccco2)CC1 [Compound 188]" readout_name=EC50 reported_measurement="0.1 to 1 µM"
compound="Cc1csc(-c2cccc(CNC(=O)c3ccc(N4CCN(c5ccccc5C)CC4)c(NC(=O)c4ccco4)c3)c2)n1 [Compound 262]" readout_name=EC50 reported_measurement="0.1 to 1 µM"
compound="Cc1ccccc1N1CCN(c2ccc(C(=O)NCCCn3cccc3)cc2NC(=O)c2ccco2)CC1 [Compound 148]" readout_name=EC50 reported_measurement="0.1 to 1 µM"
compound="Cc1ccccc1N1CCN(c2ccc(C(=O)NCCCN3CCCC3=O)cc2NC(=O)c2cnc(Cl)s2)CC1 [Compound 197]" readout_name=EC50 reported_measurement="1 to 10 µM"
compound="Cc1ccccc1N1CCN(c2ccc(C(=O)NCc3cccc(C(N)=O)c3)cc2NC(=O)c2ccco2)CC1 [Compound 189]" readout_name=EC50 reported_measurement="< 0.1 µM"
compound="Cc1ccccc1N1CCN(c2ccc(C(=O)NCCCN3CCCC3=O)cc2Nc2ncccn2)CC1 [Compound 242]" readout_name=EC50 reported_measurement="1 to 10 µM"
compound="CCc1ncc(C(=O)Nc2cc(C(=O)NCCCN3CCCC3=O)ccc2N2CCN(c3ccccc3C)CC2)s1 [Compound 200]" readout_name=EC50 reported_measurement="1 to 10 µM"
compound="Cc1ccccc1N1CCN(c2ccc(C(=O)NCCCN3CCCC3=O)cc2NC(=O)c2cccc(F)c2)CC1 [Compound 30]" readout_name=EC50 reported_measurement="1 to 10 µM"

---

Molecular target: FSHR (Homo sapiens)
Construct: expressed in transfected cells; host or cells: CHO (Cho-FSHR-LUC-1-1-43)
Assay: EC50 of cyclic AMP production in CHO FSHR cells + EC20 FSH (Assay A)
Format: cell-based
Details: CHO FSHR cells + EC20 FSH; Table 2; read-out: Assay A EC50 of cyclic AMP production
Protocol: Example 10: EC50 of Cyclic AMP Production in CHO FSHR Cells+EC20 FSH (Assay A) 2500 Cho-FSHR-LUC-1-1-43 cells were plated per well in 5 μl of phenol red free DMEM/F12+1% FBS. Cells were plated in 384 well, solid white low volume plates (Greiner 784075) by Multidrop. […] The plates were read on Envision using the cAMP HTRF—low volume 384 well protocol. The readout was the calculated fluorescence ratio (665 nm/620 nm). […]
// reported EC50 per item
Readout Name: EC50

compound="Cc1ccccc1N1CCN(c2ccc(C(=O)NCCCc3cccc(O)c3)cc2NC(=O)c2ccco2)CC1 [Compound 589]" reported_measurement="100 to 1000 nM"
compound="Cc1ccc(C(=O)Nc2cc(C(=O)N3CCC4(COC4)C3)ccc2N2CCN(c3ccccc3C)CC2)o1 [Compound 593]" reported_measurement="1000 to 10000 nM"
compound="Cc1ccc(CNc2cc(C(=O)NCCCN3CCCC3=O)ccc2N2CCN(c3ccccc3C)CC2)o1 [Compound 410]" reported_measurement="100 to 1000 nM"
compound="CCOc1cc(CCCNC(=O)c2ccc(N3CCN(c4ccccc4C)CC3)c(NC(=O)c3coc(C4CC4)n3)c2)ccc1OC [Compound 580]" reported_measurement="100 to 1000 nM"
compound="Cc1ccccc1N1CCN(c2ccc(C(=O)NCCCN3CCCC3=O)cc2NC(=O)c2ccn(C)n2)CC1 [Compound 435]" reported_measurement="100 to 1000 nM"
compound="Cc1ccccc1N1CCN(c2ccc(C(=O)NCCCN3C(=O)OCC3C)cc2NC(=O)c2coc(C3CC3)n2)CC1 (stereo not drawn) [Compound 332]" reported_measurement="100 to 1000 nM"
compound="Cc1ccccc1N1CCN(c2ccc(C(=O)NCCCN3CCCC3C(N)=O)cc2NC(=O)c2ccco2)CC1 (stereo not drawn) [Compound 503]" reported_measurement="100 to 1000 nM"
compound="Cc1ccc(CNc2cc(C(=O)NCc3cccc(CN(C)C)c3)ccc2N2CCN(c3ccccc3C)CC2)o1 [Compound 573]" reported_measurement="1000 to 10000 nM"
compound="Cc1ccc(C(=O)Nc2cc(C(=O)NCCCN3CCCC3=O)ccc2N2CCN(c3c(C)cccc3C)CC2)o1 [Compound 298]" reported_measurement="1000 to 10000 nM"
compound="COc1ccnc(N2CCN(c3ccc(C(=O)NCCCN4CCCC4=O)cc3NC(=O)c3coc(C4CC4)n3)CC2)n1 [Compound 601]" reported_measurement="100 to 1000 nM"
compound="Cc1ccccc1N1CCN(c2ccc(C(=O)NCCN3CCCC3=O)cc2NC(=O)c2coc(C3CC3)n2)CC1 [Compound 288]" reported_measurement="100 to 1000 nM"
compound="Cc1cnc(CCCNC(=O)c2ccc(N3CCN(c4ccccc4C)CC3)c(NC(=O)c3coc(C4CC4)n3)c2)s1 [Compound 430]" reported_measurement="100 to 1000 nM"
compound="Cc1ccccc1N1CCN(c2ccc(C(=O)NCCCN3CCOC3=O)cc2NC(=O)c2coc(C3CC3)n2)CC1 [Compound 321]" reported_measurement="100 to 1000 nM"
compound="Cc1ccccc1N1CCN(c2ccc(C(=O)NCc3cccc(CN(C)C)c3)cc2NS(C)(=O)=O)CC1 [Compound 563]" reported_measurement="> 10000 nM"
compound="Cc1ccccc1N1CCN(c2ccc(C(=O)NCCN3CCOC3=O)cc2NC(=O)c2coc(C3CC3)n2)CC1 [Compound 350]" reported_measurement="100 to 1000 nM"
